Measured values drawn from ChEMBL document CHEMBL3885861 for this set.

- Species: Rattus norvegicus
- procedureText: Open TG-GATES - Regimen: Single
- Type: toxicity, organism-based, Sprague-Dawley
- Parameters: regimen Single, gender Male, age 6 weeks
- testConditions: in vivo, po, 0 mg/kg, 9 h, tissue Blood, route gavage, dose level Control

| compound | Fbg |
| --- | --- |
| CCc1oc2ccccc2c1C(=O)c1cc(I)c(O)c(I)c1 | 199 mg/dL |
| C[C@](N)(Cc1ccc(O)c(O)c1)C(=O)O | 242 mg/dL |
| CN1C(=O)OC(C)(C)C1=O | 276.8 mg/dL |
| C#C[C@]1(O)CC[C@H]2[C@@H]3CCc4cc(O)ccc4[C@H]3CC[C@@]21C | 265.2 mg/dL |
| O=C(O)c1cccnc1 | 312.8 mg/dL |
| O=C(N[C@H](CO)[C@H](O)c1ccc([N+](=O)[O-])cc1)C(Cl)Cl | 256.4 mg/dL |
| CCSCC[C@H](N)C(=O)O | 224.8 mg/dL |
| CCN1CCCC1CNC(=O)c1cc(S(N)(=O)=O)ccc1OC (stereo unspecified) [SULPIRIDE] | 302.8 mg/dL |
| CC(C)(S)[C@@H](N)C(=O)O | 300 mg/dL |
| CC(=N)S [THIOACETAMIDE] | 226.8 mg/dL |
| Oc1ncnc2[nH]ncc12 | 221.2 mg/dL |

* * *

Documented LIVER across a set of molecules
- Species: Rattus norvegicus
- procedureText: Open TG-GATES - Regimen: Single
- Format: toxicity, organism-based, Sprague-Dawley
- Design: regimen Single, gender Male, age 6 weeks
- testConditions: in vivo, po, 0 mg/kg, 24 h, tissue Liver, route gavage, dose level Control

| molecule | LIVER |
| --- | --- |
| C[C@]12CCC(=O)C=C1CC[C@@H]1[C@@H]2CC[C@@]2(C)[C@H]1CC[C@]2(C)O [METHYLTESTOSTERONE] | 9.8 g |
| Nc1nc(N)c2nc(-c3ccccc3)c(N)nc2n1 | 10.9 g |
| CC(C)C(=O)Nc1ccc([N+](=O)[O-])c(C(F)(F)F)c1 [FLUTAMIDE] | 10.2 g |

* * *

- Species on record: Rattus norvegicus
- procedureText: Open TG-GATES - Regimen: Daily Repeat
- Format: toxicity, organism-based, Sprague-Dawley
- Design: regimen Daily Repeat, gender Male, age 6 weeks
- testConditions: in vivo, po, 100 mg/kg, 72 h, tissue Plasma, route gavage, dose level Low, time 3 day
# RALB per record follows
measurementLabel: RALB (g/dL)

| molecule | numericValue |
| --- | --- |
| CC(C)(S)[C@@H](N)C(=O)O [PENICILLAMINE] | 2.7 |
| O=C(N[C@H](CO)[C@H](O)c1ccc([N+](=O)[O-])cc1)C(Cl)Cl [CHLORAMPHENICOL] | 2.5 |
| O=C(O)c1cccnc1 [NIACIN] | 3.1 |
| CCN1CCCC1CNC(=O)c1cc(S(N)(=O)=O)ccc1OC (centres undefined) [SULPIRIDE] | 2.6 |

* * *

- Species on record: Rattus norvegicus
- procedureText: Open TG-GATES - Regimen: Daily Repeat
- Format: toxicity, organism-based, Sprague-Dawley
- Set-up: regimen Daily Repeat, gender Male, age 6 weeks
- testConditions: in vivo, po, 100 mg/kg, […], tissue Blood, route gavage, dose level Low, time 7 day
measurementLabel: RBC

| molecule | measurementLabel | result |
| --- | --- | --- |
| CC(C)(S)[C@@H](N)C(=O)O [PENICILLAMINE] | RBC | 674.2 x10_4/ul |
| O=C(O)c1cccnc1 [NIACIN] | RBC | 650 x10_4/ul |
| CCN1CCCC1CNC(=O)c1cc(S(N)(=O)=O)ccc1OC (centres undefined) [SULPIRIDE] | RBC | 681.6 x10_4/ul |
| O=C(N[C@H](CO)[C@H](O)c1ccc([N+](=O)[O-])cc1)C(Cl)Cl [CHLORAMPHENICOL] | RBC | 675 x10_4/ul |

* * *

- Organism: Rattus norvegicus
- procedureText: Open TG-GATES - Regimen: Daily Repeat
- Format: toxicity, organism-based, Sprague-Dawley
- Design: regimen Daily Repeat, gender Male, age 6 weeks
- testConditions: in vivo, po, 100 mg/kg, […], tissue Plasma, route gavage, dose level Low, time 7 day
# TG values compiled below
measurementLabel: TG

| compound | result |
| --- | --- |
| O=C(O)c1cccnc1 | 150 mg/dL |
| CC(C)(S)[C@@H](N)C(=O)O | 116.8 mg/dL |
| O=C(N[C@H](CO)[C@H](O)c1ccc([N+](=O)[O-])cc1)C(Cl)Cl | 72.4 mg/dL |
| CCN1CCCC1CNC(=O)c1cc(S(N)(=O)=O)ccc1OC (centres undefined) [SULPIRIDE] | 116.4 mg/dL |

* * *

- Species: Rattus norvegicus
- procedureText: Open TG-GATES - Regimen: Single
- Format: toxicity, organism-based, Sprague-Dawley
- Parameters: regimen Single, gender Male, age 6 weeks
- testConditions: in vivo, po, 0 mg/kg, 9 h, tissue Blood, route gavage, dose level Control
measurementLabel: RBC (x10_4/ul)

| compound | measurementLabel | numericValue |
| --- | --- | --- |
| Nc1nc(N)c2nc(-c3ccccc3)c(N)nc2n1 | RBC | 661.2 |
| C[C@]12CCC(=O)C=C1CC[C@@H]1[C@@H]2CC[C@@]2(C)[C@H]1CC[C@]2(C)O [METHYLTESTOSTERONE] | RBC | 616.6 |
| CCSCC[C@H](N)C(=O)O [ETHIONINE] | RBC | 615 |
| CC(=O)Oc1cc(C(C)C)c(OCCN(C)C)cc1C [MOXISYLYTE] | RBC | 611 |
| CC(C)C(=O)Nc1ccc([N+](=O)[O-])c(C(F)(F)F)c1 [FLUTAMIDE] | RBC | 621.8 |
| C#C[C@]1(O)CC[C@H]2[C@@H]3CCc4cc(O)ccc4[C@H]3CC[C@@]21C [ETHINYL ESTRADIOL] | RBC | 588 |
| O=C(O)c1cccnc1 [NIACIN] | RBC | 627.8 |
| CN1C(=O)OC(C)(C)C1=O [TRIMETHADIONE] | RBC | 642.8 |
| O=C(N[C@H](CO)[C@H](O)c1ccc([N+](=O)[O-])cc1)C(Cl)Cl [CHLORAMPHENICOL] | RBC | 630.2 |
| CC(=N)S [THIOACETAMIDE] | RBC | 592 |
| CC(C)(S)[C@@H](N)C(=O)O [PENICILLAMINE] | RBC | 641.4 |

* * *

- Organism: Rattus norvegicus
- procedureText: Open TG-GATES - Regimen: Daily Repeat
- Format: toxicity, organism-based, Sprague-Dawley
- Parameters: regimen Daily Repeat, gender Male, age 6 weeks
- testConditions: in vivo, po, 1000 mg/kg, 72 h, tissue Plasma, route gavage, dose level High, time 3 day
This section presents compounds with their documented LDH values.

| compound | LDH |
| --- | --- |
| CCN1CCCC1CNC(=O)c1cc(S(N)(=O)=O)ccc1OC (centres undefined) [SULPIRIDE] | 73.8 IU/L |
| O=C(N[C@H](CO)[C@H](O)c1ccc([N+](=O)[O-])cc1)C(Cl)Cl [CHLORAMPHENICOL] | 85.6 IU/L |
| O=C(O)c1cccnc1 [NIACIN] | 176.6 IU/L |
| CC(C)(S)[C@@H](N)C(=O)O [PENICILLAMINE] | 94.2 IU/L |

* * *

- Species: Rattus norvegicus
- procedureText: Open TG-GATES - Regimen: Daily Repeat
- Type: toxicity, organism-based, Sprague-Dawley
- Design: regimen Daily Repeat, gender Male, age 6 weeks
- testConditions: in vivo, po, 300 mg/kg, 72 h, tissue Plasma, route gavage, dose level Middle, time 3 day
measurementLabel: RALB (g/dL)

| molecule | measurementLabel | valueUnits | numericValue |
| --- | --- | --- | --- |
| O=C(N[C@H](CO)[C@H](O)c1ccc([N+](=O)[O-])cc1)C(Cl)Cl | RALB | g/dL | 2.6 |
| CC(C)(S)[C@@H](N)C(=O)O | RALB | g/dL | 2.8 |
| CCN1CCCC1CNC(=O)c1cc(S(N)(=O)=O)ccc1OC (centres undefined) [SULPIRIDE] | RALB | g/dL | 2.7 |
| O=C(O)c1cccnc1 | RALB | g/dL | 3 |

* * *

- Species on record: Rattus norvegicus
- procedureText: Open TG-GATES - Regimen: Daily Repeat
- Format: toxicity, organism-based, Sprague-Dawley
- Set-up: regimen Daily Repeat, gender Male, age 6 weeks
- testConditions: in vivo, po, 1000 mg/kg, […], tissue Plasma, route gavage, dose level High, time 7 day
Items are presented alongside their recorded ALT.

| compound | ALT / IU/L |
| --- | --- |
| O=C(N[C@H](CO)[C@H](O)c1ccc([N+](=O)[O-])cc1)C(Cl)Cl | 50.6 |
| CC(C)(S)[C@@H](N)C(=O)O | 37 |
| O=C(O)c1cccnc1 | 45.6 |
| CCN1CCCC1CNC(=O)c1cc(S(N)(=O)=O)ccc1OC (centres undefined) [SULPIRIDE] | 55 |
